Target: Nuclear factor erythroid 2-related factor 2 (Homo sapiens) (UniProt Q16236)
Sequence (whole entry): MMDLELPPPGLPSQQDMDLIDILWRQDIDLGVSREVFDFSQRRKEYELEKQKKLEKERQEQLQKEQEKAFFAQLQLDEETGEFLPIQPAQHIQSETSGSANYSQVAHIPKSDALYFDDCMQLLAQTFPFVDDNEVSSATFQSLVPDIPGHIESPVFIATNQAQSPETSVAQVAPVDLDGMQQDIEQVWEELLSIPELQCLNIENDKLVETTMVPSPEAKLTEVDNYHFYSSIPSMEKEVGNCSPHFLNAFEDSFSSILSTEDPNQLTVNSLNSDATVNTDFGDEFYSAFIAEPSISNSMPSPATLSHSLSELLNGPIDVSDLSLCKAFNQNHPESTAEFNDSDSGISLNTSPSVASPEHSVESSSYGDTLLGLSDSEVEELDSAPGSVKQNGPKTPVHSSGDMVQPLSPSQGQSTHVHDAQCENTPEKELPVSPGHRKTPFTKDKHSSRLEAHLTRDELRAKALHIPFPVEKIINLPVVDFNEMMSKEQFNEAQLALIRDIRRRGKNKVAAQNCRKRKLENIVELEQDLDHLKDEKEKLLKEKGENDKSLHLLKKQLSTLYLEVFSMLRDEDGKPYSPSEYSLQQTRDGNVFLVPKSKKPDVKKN
Assay: Induction of Nrf2-mediated ARE activity in human HepG2-ARE-C8 cells at 10 uM after 12 hrs by luciferase reporter gene assay relative to control
Format: cell-based
Listed here are compounds together with their documented fold change (FC).

>  <compound>
O=C(/C=C1\NCC2c3ccccc3CCN2C1=O)c1cccc(Br)c1 (stereo not given)

>  <study_target>
Nuclear factor erythroid 2-related factor 2 (Homo sapiens) (UniProt Q16236)

>  <fold change (FC)>
15.7

$$$$
>  <compound>
COc1cc2c(cc1OC)C1CN/C(=C\C(=O)c3ccc(F)cc3)C(=O)N1CC2 (stereo not given)

>  <study_target>
Nuclear factor erythroid 2-related factor 2 (Homo sapiens) (UniProt Q16236)

>  <fold change (FC)>
1.25

$$$$
>  <compound>
O=C(/C=C1\NCC2c3ccccc3CCN2C1=O)c1cc(F)cc(F)c1 (stereo not given)

>  <study_target>
Nuclear factor erythroid 2-related factor 2 (Homo sapiens) (UniProt Q16236)

>  <fold change (FC)>
7.62

$$$$
>  <compound>
COc1cccc2c1CCN1C(=O)/C(=C/C(=O)c3ccccc3F)NCC21 (stereo not given)

>  <study_target>
Nuclear factor erythroid 2-related factor 2 (Homo sapiens) (UniProt Q16236)

>  <fold change (FC)>
4.26

$$$$
>  <compound>
O=C(/C=C1\NCC2c3ccccc3CCN2C1=O)c1ccccc1Cl (stereo not given)

>  <study_target>
Nuclear factor erythroid 2-related factor 2 (Homo sapiens) (UniProt Q16236)

>  <fold change (FC)>
6.04

$$$$
>  <compound>
COc1ccc(C(=O)/C=C2\NCC3c4ccccc4CCN3C2=O)cc1OC (stereo not given)

>  <study_target>
Nuclear factor erythroid 2-related factor 2 (Homo sapiens) (UniProt Q16236)

>  <fold change (FC)>
2.15

$$$$
>  <compound>
COc1ccc2c(c1)C1CN/C(=C\C(=O)c3cccc([N+](=O)[O-])c3)C(=O)N1CC2 (stereo not given)

>  <study_target>
Nuclear factor erythroid 2-related factor 2 (Homo sapiens) (UniProt Q16236)

>  <fold change (FC)>
6.5

$$$$
>  <compound>
O=C(/C=C1\NCC2c3ccccc3CCN2C1=O)c1ccc(-c2ccccc2)cc1 (stereo not given)

>  <study_target>
Nuclear factor erythroid 2-related factor 2 (Homo sapiens) (UniProt Q16236)

>  <fold change (FC)>
2.09

$$$$
>  <compound>
COc1ccc2c(c1)C1CN/C(=C\C(=O)c3cccc(F)c3)C(=O)N1CC2 (stereo not given)

>  <study_target>
Nuclear factor erythroid 2-related factor 2 (Homo sapiens) (UniProt Q16236)

>  <fold change (FC)>
20.4

$$$$
>  <compound>
COc1cccc(C(=O)/C=C2\NCC3c4cc(OC)c(OC)cc4CCN3C2=O)c1 (stereo not given)

>  <study_target>
Nuclear factor erythroid 2-related factor 2 (Homo sapiens) (UniProt Q16236)

>  <fold change (FC)>
1.06

$$$$

* * *

Listing of entries alongside the reported fold change (FC).
Biological target: Nuclear factor erythroid 2-related factor 2 (Homo sapiens) (UniProt Q16236)
Experiment: Induction of Nrf2-mediated ARE activity in human HepG2-ARE-C8 cells at 0.1 uM after 12 hrs by luciferase reporter gene assay relative to control
Assay type: cell-based
endpoint_name: fold change (FC)

>  <compound>
COc1cccc2c1CCN1C(=O)/C(=C/C(=O)c3ccccc3)NCC21 (stereo not given)

>  <measured>
3.53

$$$$
>  <compound>
COc1cc2c(cc1OC)C1CN/C(=C\C(=O)c3cccc([N+](=O)[O-])c3)C(=O)N1CC2 (stereo not given)

>  <measured>
1.08

$$$$
>  <compound>
COc1ccc2c(c1)CCN1C(=O)/C(=C/C(=O)c3ccccc3F)NCC21 (stereo not given)

>  <measured>
1.45

$$$$
>  <compound>
COc1cc2c(cc1OC)C1CN/C(=C\C(=O)c3ccc(F)cc3)C(=O)N1CC2 (stereo not given)

>  <measured>
1.42

$$$$
>  <compound>
COc1cc2c(cc1OC)C1CN/C(=C\C(=O)c3cccc(F)c3)C(=O)N1CC2 (stereo not given)

>  <measured>
0.93

$$$$
>  <compound>
O=C(/C=C1\NCC2c3ccccc3CCN2C1=O)c1cccc(F)c1 (stereo not given)

>  <measured>
3.89

$$$$
>  <compound>
COc1ccc(C(=O)/C=C2\NCC3c4ccccc4CCN3C2=O)cc1 (stereo not given)

>  <measured>
2.3

$$$$
>  <compound>
COc1ccc2c(c1)CCN1C(=O)/C(=C/C(=O)c3ccccc3)NCC21 (stereo not given)

>  <measured>
1.7

$$$$
>  <compound>
O=C(/C=C1\NCC2c3ccccc3CCN2C1=O)c1ccc(F)cc1 (stereo not given)

>  <measured>
4.39

$$$$
>  <compound>
O=C(/C=C1\NCC2c3ccccc3CCN2C1=O)c1cc(F)cc(F)c1 (stereo not given)

>  <measured>
2.92

$$$$

* * *

Target: Nuclear factor erythroid 2-related factor 2 (Homo sapiens)
Test: Induction of Nrf2-mediated ARE activity in human HepG2-ARE-C8 cells at 0.01 uM after 12 hrs by luciferase reporter gene assay relative to control
Format: cell-based
Below: a set of entries, each annotated with reported fold change (FC).

>  <compound>
COc1ccccc1C(=O)/C=C1\NCC2c3ccccc3CCN2C1=O (stereo not given)

>  <fold change (FC)>
0.96

$$$$
>  <compound>
COc1cc2c(cc1OC)C1CN/C(=C\C(=O)c3ccccc3F)C(=O)N1CC2 (stereo not given)

>  <fold change (FC)>
1.07

$$$$
>  <compound>
O=C(/C=C1\NCC2c3ccccc3CCN2C1=O)c1cc(F)cc(F)c1 (stereo not given)

>  <fold change (FC)>
1.34

$$$$
>  <compound>
COc1cc2c(cc1OC)C1CN/C(=C\C(=O)c3ccc(F)cc3)C(=O)N1CC2 (stereo not given)

>  <fold change (FC)>
1.25

$$$$
>  <compound>
COc1ccc2c(c1)C1CN/C(=C\C(=O)c3cccc([N+](=O)[O-])c3)C(=O)N1CC2 (stereo not given)

>  <fold change (FC)>
1.45

$$$$
>  <compound>
COc1ccc2c(c1)C1CN/C(=C\C(=O)c3ccccc3F)C(=O)N1CC2 (stereo not given)

>  <fold change (FC)>
1.44

$$$$
>  <compound>
COc1ccc2c(c1)C1CN/C(=C\C(=O)c3cccc(Cl)c3)C(=O)N1CC2 (stereo not given)

>  <fold change (FC)>
2.26

$$$$
>  <compound>
COc1cccc2c1CCN1C(=O)/C(=C/C(=O)c3ccccc3F)NCC21 (stereo not given)

>  <fold change (FC)>
1.93

$$$$
>  <compound>
COc1ccc2c(c1)C1CN/C(=C\C(=O)c3ccccc3)C(=O)N1CC2 (stereo not given)

>  <fold change (FC)>
1.35

$$$$
>  <compound>
O=C(/C=C1\NCC2c3ccccc3CCN2C1=O)c1ccccc1 (stereo not given)

>  <fold change (FC)>
2

$$$$

* * *

// values below are reported fold change (FC)
Molecular target: Nuclear factor erythroid 2-related factor 2 (Homo sapiens) (UniProt Q16236)
Assay: Induction of Nrf2-mediated ARE activity in human HepG2-ARE-C8 cells at 10 uM after 12 hrs by luciferase reporter gene assay relative to control
Format: cell-based
endpoint_name: fold change (FC)

>  <compound>
COc1ccc(C(=O)/C=C2\NCC3c4ccccc4CCN3C2=O)cc1 (stereo not given)

>  <endpoint_name>
fold change (FC)

>  <measured>
5.07

$$$$
>  <compound>
O=C(/C=C1\NCC2c3ccccc3CCN2C1=O)c1ccc([N+](=O)[O-])cc1 (stereo not given)

>  <endpoint_name>
fold change (FC)

>  <measured>
3.81

$$$$
>  <compound>
O=C(/C=C1\NCC2c3ccccc3CCN2C1=O)c1cccc(Cl)c1 (stereo not given)

>  <endpoint_name>
fold change (FC)

>  <measured>
16.5

$$$$
>  <compound>
COc1cc2c(cc1OC)C1CN/C(=C\C(=O)c3cccc(Cl)c3)C(=O)N1CC2 (stereo not given)

>  <endpoint_name>
fold change (FC)

>  <measured>
1.44

$$$$
>  <compound>
O=C(/C=C1\NCC2c3ccccc3CCN2C1=O)c1ccc(F)cc1 (stereo not given)

>  <endpoint_name>
fold change (FC)

>  <measured>
14

$$$$
>  <compound>
COc1cc2c(cc1OC)C1CN/C(=C\C(=O)c3cccc([N+](=O)[O-])c3)C(=O)N1CC2 (stereo not given)

>  <endpoint_name>
fold change (FC)

>  <measured>
2.51

$$$$
>  <compound>
COc1ccc2c(c1)CCN1C(=O)/C(=C/C(=O)c3ccccc3F)NCC21 (stereo not given)

>  <endpoint_name>
fold change (FC)

>  <measured>
7.7

$$$$
>  <compound>
COc1cc2c(cc1OC)C1CN/C(=C\C(=O)c3cccc(F)c3)C(=O)N1CC2 (stereo not given)

>  <endpoint_name>
fold change (FC)

>  <measured>
1.09

$$$$
>  <compound>
O=C(/C=C1\NCC2c3ccccc3CCN2C1=O)c1ccc(Cl)cc1Cl (stereo not given)

>  <endpoint_name>
fold change (FC)

>  <measured>
2.49

$$$$
>  <compound>
O=C(/C=C1\NCC2c3ccccc3CCN2C1=O)c1cccc(C(F)(F)F)c1 (stereo not given)

>  <endpoint_name>
fold change (FC)

>  <measured>
3.25

$$$$
